test: qHTS for Inhibitors of Plasmodium falciparum (7G8) proliferation (AID 504316); also: nearly all actives have a fitted effect of over 65% in size; conditions: P. falciparum 7G8 in erythrocytes, SYBR Green DNA, 72 h; series mostly up to 6.7 µM
Results filed as inconclusive are left out. The source made the active and inactive calls. Calls follow the shape of the dose curve; as a rule, active = well fitted inhibition curve with a large enough effect; inconclusive = small, poorly fitted or top-dose-only effect; inactive = flat fitted curve, though single readings scatter.
Classes used: Y (active), N (inactive)

MOLECULE: COC(=O)C1=C(C)N(CC2CC2)C(=NCCc2cccnc2)NC1c1ccccc1 (stereo unspecified)
GROUP LABEL: N
--
MOLECULE: CCCCC1=CC2=C(c3ccco3)C(=O)C(C)(OC(=O)c3ccc(OC)cc3)C(=O)C2=CN1C1CCCCC1 (stereo unspecified)
GROUP LABEL: N
--
MOLECULE: COC(=O)C1=C(C(=O)OC)[C@@H]2N(C)c3ccccc3[C@@]23C[C@@H](C(=O)OC)N(C(=O)c2cc(C)oc2C)C3=N1
GROUP LABEL: N
--
MOLECULE: C=CCCCN1C(=O)NC(c2ccccc2)C(C(=O)OC)=C1C (stereo unspecified)
GROUP LABEL: N
--
MOLECULE: CCc1cc2c(nc1CC)CCN(CCC(C)=NOC[C@H]1O[C@H](c3ccccc3)C=C[C@H]1Oc1ccc(OC)cc1)C2
GROUP LABEL: Y
--
MOLECULE: c1ccc(C2NCCc3c2[nH]c2ccccc32)cc1 (stereo unspecified)
GROUP LABEL: N
--
MOLECULE: C[C@H]1C[C@@H](C)O[C@@]2(C1)C(=O)N(CC1CC1)c1ccccc12
GROUP LABEL: N
--
MOLECULE: C=CCC(O)(C#Cc1ccccc1)c1ccccc1 (stereo unspecified)
GROUP LABEL: N
--
MOLECULE: C=C(C)C(=O)C=CC=Cc1ccccc1
GROUP LABEL: N
--
MOLECULE: COc1ccc([C@]23Cc4cc(OC)c(OC)cc4[C@H](O2)C2=C(CC4(CCCCC4)OC2=O)O3)cc1
GROUP LABEL: N
--
MOLECULE: COC(=O)c1ccc(CN2C(=O)[C@]3(OCCC=C[C@@H]3C)c3cc(OC)ccc32)cc1
GROUP LABEL: N
--
MOLECULE: COC(=O)C1=C(C)N(Cc2ccccc2)C(=NCCc2ccc([N+](=O)[O-])cc2)NC1c1cccc(F)c1 (stereo unspecified)
GROUP LABEL: Y
--
MOLECULE: CC(=O)OC[C@H]1O[C@@H](ON=C[C@@H](C)[C@H](OCc2ccccc2)C(C)C)[C@@H](OC(C)=O)[C@@H](OC(C)=O)[C@@H]1OC(C)=O
GROUP LABEL: N
--
MOLECULE: COC(=O)c1nnc(SC)nc1C(=O)OC
GROUP LABEL: N
--
MOLECULE: C=C(CCN1C=C(C(C)=O)C(c2ccccc2)NC1=O)c1ccccc1 (stereo unspecified)
GROUP LABEL: N
--
MOLECULE: CC(C)=CCCC(C)=CCON=C1C[C@@H](O)[C@@H](O)[C@@H]2[C@H]3C(=O)N(C[C@@H]4CCCO4)C(=O)[C@@H]3CC[C@@H]12
GROUP LABEL: N
